Experiment Summary: Anti-larval settlement bioassay, bryozoan
Type: in vivo, Bugula neritina
Experimental Context: Bugula neritina (bryozoan), larvae, in vivo; larval mortality, 3 h
Experimental Readout: LC50 at 3 h

{"Mol": "CO[C@@H]1CC[C@H](O)c2c1oc1c3c4c(c(O)c1c2=O)-c1c(cc2cc(C)n(N)c(=O)c2c1O)C[C@H]4OCO3", "Result": "> 100 µg/mL"}

* * *

System: barnacle Amphibalanus amphitrite larvae
Experiment Summary: Anti-larval settlement bioassay, barnacle
Type: in vivo
Experimental Context: after 48 h of incubation
Experimental Readout: settlement rate compared with control group (0.1% DMSO in FSW)

{"Mol": "CO[C@@H]1CC[C@H](O)c2c1oc1c3c4c(c(O)c1c2=O)-c1c(cc2cc(C)n(N)c(=O)c2c1O)C[C@H]4OCO3", "Result": "significantly lower"}
{"Mol": "Cc1cc2cc3c(c(O)c2c(=O)n1N)-c1c2c(c4oc5c(c(=O)c4c1O)[C@@H](O)CC[C@H]5O)OCO[C@@H]2C3", "Result": "significantly lower"}
